test system: PPARg:RXRa DBDmut IVT, anti-RXR (DBD mutation: RXRa K156A/R161A, NR concentration 270 nM, RXRa partner concentration 90 nM); test: PBM binding z-score (relative to random genomic background probes); higher = stronger binding; sequences stand for … in GC…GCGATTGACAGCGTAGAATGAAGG
Assign true (1) whenever PBM binding z-score does not fall below 2; assign false (0) whenever it does.

*Q* # bool: PBM binding z-score of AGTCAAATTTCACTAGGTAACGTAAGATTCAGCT >= 2
*A* false (0)

*Q* # bool: PBM binding z-score of CGAACTAGGGCAAAGGACAGTGAAAGGCGACGTA >= 2
*A* true (1)

*Q* # bool: PBM binding z-score of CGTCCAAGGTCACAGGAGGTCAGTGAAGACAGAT >= 2
*A* true (1)

*Q* # bool: PBM binding z-score of CAAACTAGGTCAAGGTCAAAGTAGGTTTGTGCCA >= 2
*A* true (1)

*Q* # bool: PBM binding z-score of ATACGTAGGTTATCGGGTCATTCAGTTTGCGCAT >= 2
*A* true (1)

*Q* # bool: PBM binding z-score of CGAACGAGGTCAGAACAGGACAGTGAAGGATGAT >= 2
*A* true (1)

*Q* # bool: PBM binding z-score of ATATGTAGGTTAGGGCCATTCAGAAAGTAGGGAA >= 2
*A* true (1)

*Q* # bool: PBM binding z-score of TCGAGTAGGTTACGGGGGCATTAAGGGATGAAGA >= 2
*A* true (1)

*Q* # bool: PBM binding z-score of TGGAGTAGGTTACGGGGGCATTCAGGGATGAAGA >= 2
*A* true (1)

*Q* # bool: PBM binding z-score of TAGCCTAAGTCATGGGCCAGTATACCACGCGAAC >= 2
*A* false (0)

*Q* # bool: PBM binding z-score of ATATGTAGGTTAAGGGTCATGCAGGTTGGTTCGC >= 2
*A* true (1)

*Q* # bool: PBM binding z-score of TCTGCTATGTCAACGATGGTCAGCTAATCTGCTA >= 2
*A* false (0)

*Q* # bool: PBM binding z-score of ACTCGGAGGGCAAAGGTCAGAGCTACGCCAGTGA >= 2
*A* true (1)

*Q* # bool: PBM binding z-score of AATACAGGGACATCGTAGGCCAGAGTACGCACAG >= 2
*A* false (0)

---

I'd appreciate it if you could supply PBM binding z-score values for the items below.
tested on: PXR homodimer (NR concentration 270 nM); experiment: PBM binding z-score (relative to random genomic background probes); higher = stronger binding; sequences stand for … in GC…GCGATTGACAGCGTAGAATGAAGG

*Q* For CCTAGTTGGTCAGGAGGTCCCACACCGGATATGA , write its PBM binding z-score.
*A* 0.63

*Q* For CTACGTAGGTTAAGGGGGTCATTCAGTTTGAAAG , write its PBM binding z-score.
*A* 11.4

*Q* For CCTACTGGGCCAAAGGTCATTGACTCCAATGCTC , write its PBM binding z-score.
*A* 1.32

*Q* For CGTCCAAGGTAAATGCTAGGTCAGTGAAAGCATT , write its PBM binding z-score.
*A* -0.305

*Q* For CCGACTGGGGCAAAGGTTACGATACTCAGTACGA , write its PBM binding z-score.
*A* -0.536

*Q* For CGAACTAGGTCACCAGGACAGTGTAGAGGTTGGA , write its PBM binding z-score.
*A* -0.179

*Q* For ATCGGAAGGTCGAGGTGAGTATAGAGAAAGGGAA , write its PBM binding z-score.
*A* 0.218

*Q* For CCTACTGGGCGATTCAGAGGTCATTGATCATATG , write its PBM binding z-score.
*A* 1.7

*Q* For ATATGTAGGATAGGGTCATTCAGAAAGTAGGGAA , write its PBM binding z-score.
*A* 1.46

*Q* For CCTAGTAGGTTACGAGGGGGCATTCAGTGCGAAT , write its PBM binding z-score.
*A* 6.19

*Q* For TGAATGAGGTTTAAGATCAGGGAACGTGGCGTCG , write its PBM binding z-score.
*A* -0.311

*Q* For ATATGTAGGTTAGCTGGAGTCATTCAGACTAGGC , write its PBM binding z-score.
*A* -0.186

*Q* For AATACAGGGTCACTTGGCCAGAGTAGGTACGAAT , write its PBM binding z-score.
*A* 0.166

*Q* For CCTTGCGGGTCACTGACAGGTTATAGCATTTGGA , write its PBM binding z-score.
*A* -0.0222

*Q* For CCTCGGAGGTCAGAAGGTCAGAGCTGTCCGCTTT , write its PBM binding z-score.
*A* 0.603

*Q* For CGTCCAAGGTCAAAGGTCAGGGAAGAGATGACGG , write its PBM binding z-score.
*A* 1.61

*Q* For CCCACTGGGGCAAAGGTTACCATACTCAGTACGA , write its PBM binding z-score.
*A* -0.111
